Below: a set of entries, each annotated with reported viability at 28.5 h, 10 µM.
- Measurement notes: in vitro
- Applied conditions: human, hela cells, % viability
Answer in %, number only, no unit symbol.

The examples below pair each entry with its known result.
COc1cccc(NC(=O)N2CCC3(CC2)NC(=O)c2cc(-c4ccoc4)ccc2O3)c1; 102
CC1CN(c2cc(CNc3nc4ccccn4c3C#N)ccn2)CCO1 (stereo not shown); 78.7
O=C(NC(c1ccc(F)cc1)c1cnccn1)C1CCN(S(=O)(=O)c2cccc(Cl)c2)CC1 (stereo not shown); 85.1
Cc1cc(C(=O)NCCn2ccnc2C)c2cccc(Cl)c2n1; 95.6
CC1CCN(S(=O)(=O)c2ccc(C(=O)N3CCC(C(=O)O)CC3)cc2)CC1; 105

**Query** Returns the measured viability at 28.5 h, 10 µM for the input molecule. Input: `CCc1nc2ccccc2n1CC(=O)O`
**Result** 101

**Query** Same question for `Nc1c(N(CCO)C(=O)C2CCCC2)c(=O)[nH]c(=O)n1Cc1ccccc1` please.
**Result** 97.3
